Some binders, each annotated with its measured IC50.
target: CLTC (clathrin heavy chain 1, Clathrin-propeller domain) (human) (UniProt Q00610); assay: fluorescence polarisation; competition: unlabelled peptide in serial dilution against the protein domain (master mix at four times the KD) with its FITC-labelled probe peptide; 50 mM KPO4 or NaPO4 pH 7.5; Ki calculated from IC50
Sequence (Q00610 whole entry, the tested form may be a part): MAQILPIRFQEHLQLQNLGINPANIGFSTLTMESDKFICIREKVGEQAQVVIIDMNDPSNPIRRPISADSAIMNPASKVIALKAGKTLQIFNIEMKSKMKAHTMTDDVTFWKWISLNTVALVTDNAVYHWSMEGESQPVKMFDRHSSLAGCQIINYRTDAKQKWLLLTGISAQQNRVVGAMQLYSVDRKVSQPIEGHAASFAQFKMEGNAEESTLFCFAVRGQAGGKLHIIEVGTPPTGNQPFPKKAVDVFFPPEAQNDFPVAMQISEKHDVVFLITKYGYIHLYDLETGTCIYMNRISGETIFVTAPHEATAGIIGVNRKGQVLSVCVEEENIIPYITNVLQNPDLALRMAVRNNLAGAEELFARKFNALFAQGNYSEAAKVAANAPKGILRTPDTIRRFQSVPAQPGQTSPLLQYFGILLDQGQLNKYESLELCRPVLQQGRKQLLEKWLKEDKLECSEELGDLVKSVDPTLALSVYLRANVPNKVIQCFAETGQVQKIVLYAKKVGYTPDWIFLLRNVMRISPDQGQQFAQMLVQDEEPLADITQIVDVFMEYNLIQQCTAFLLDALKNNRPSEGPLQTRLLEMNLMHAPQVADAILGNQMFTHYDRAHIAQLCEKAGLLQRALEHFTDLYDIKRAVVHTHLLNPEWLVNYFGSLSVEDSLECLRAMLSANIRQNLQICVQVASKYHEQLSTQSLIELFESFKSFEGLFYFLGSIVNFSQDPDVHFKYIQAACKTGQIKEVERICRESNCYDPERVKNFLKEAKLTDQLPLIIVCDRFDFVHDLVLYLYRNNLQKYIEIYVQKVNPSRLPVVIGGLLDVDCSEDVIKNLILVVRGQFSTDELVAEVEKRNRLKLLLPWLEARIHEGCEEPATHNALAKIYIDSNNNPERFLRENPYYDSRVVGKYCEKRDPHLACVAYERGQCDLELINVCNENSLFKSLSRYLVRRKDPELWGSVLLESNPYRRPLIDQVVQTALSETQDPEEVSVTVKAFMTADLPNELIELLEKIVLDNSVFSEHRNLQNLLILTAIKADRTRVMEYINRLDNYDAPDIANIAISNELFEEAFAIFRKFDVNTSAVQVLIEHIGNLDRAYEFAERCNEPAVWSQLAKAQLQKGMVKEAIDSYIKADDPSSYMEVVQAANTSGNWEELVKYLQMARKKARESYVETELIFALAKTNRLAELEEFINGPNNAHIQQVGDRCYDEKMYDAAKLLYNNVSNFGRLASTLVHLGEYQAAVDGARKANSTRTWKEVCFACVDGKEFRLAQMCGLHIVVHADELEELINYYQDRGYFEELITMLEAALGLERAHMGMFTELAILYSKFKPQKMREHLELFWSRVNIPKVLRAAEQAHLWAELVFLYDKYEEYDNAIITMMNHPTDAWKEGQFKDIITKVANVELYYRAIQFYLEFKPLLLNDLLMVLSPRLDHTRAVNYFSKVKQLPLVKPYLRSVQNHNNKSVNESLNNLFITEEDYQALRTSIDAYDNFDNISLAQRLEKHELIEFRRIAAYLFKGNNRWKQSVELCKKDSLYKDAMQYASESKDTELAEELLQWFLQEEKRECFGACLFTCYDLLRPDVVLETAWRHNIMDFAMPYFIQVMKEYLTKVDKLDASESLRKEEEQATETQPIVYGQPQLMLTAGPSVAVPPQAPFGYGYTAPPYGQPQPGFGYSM
Where no end group is shown, it is not given here. [ ]: non-standard residue; d: D form. pT = C[C@@H](OP(=O)(O)O)[C@H](N)C(=O)O
I only need the number, in µM, no unit after it.

Binder	IC50 (µM)
Ac-YVSGNLIDLYGNQGLP [MITF 256-271 peptide]	150
Ac-LIDLPLIDFCD[pT]PEAHY [GTSE1 645-660 peptide, phosphothreonine]	87
Ac-LIDLPLIDFCDTPEAHY [GTSE1 645-660 peptide]	97

input: IC50 lookup needed for Ac-YVSGNLIDLCGNQGLP [MITF 256-271 peptide, Y265C] , thanks.
output: 220
